target: Recombinant purified human JAK3 (Homo sapiens); test: JAK3 kinase inhibitory activity, ADP-Glo kinase assay (Promega V9441); conditions: ATP 5 uM, 4 ng JAK3 per reaction, 1 hour 30 °C, chemiluminescence
Sequence (P52333 whole entry): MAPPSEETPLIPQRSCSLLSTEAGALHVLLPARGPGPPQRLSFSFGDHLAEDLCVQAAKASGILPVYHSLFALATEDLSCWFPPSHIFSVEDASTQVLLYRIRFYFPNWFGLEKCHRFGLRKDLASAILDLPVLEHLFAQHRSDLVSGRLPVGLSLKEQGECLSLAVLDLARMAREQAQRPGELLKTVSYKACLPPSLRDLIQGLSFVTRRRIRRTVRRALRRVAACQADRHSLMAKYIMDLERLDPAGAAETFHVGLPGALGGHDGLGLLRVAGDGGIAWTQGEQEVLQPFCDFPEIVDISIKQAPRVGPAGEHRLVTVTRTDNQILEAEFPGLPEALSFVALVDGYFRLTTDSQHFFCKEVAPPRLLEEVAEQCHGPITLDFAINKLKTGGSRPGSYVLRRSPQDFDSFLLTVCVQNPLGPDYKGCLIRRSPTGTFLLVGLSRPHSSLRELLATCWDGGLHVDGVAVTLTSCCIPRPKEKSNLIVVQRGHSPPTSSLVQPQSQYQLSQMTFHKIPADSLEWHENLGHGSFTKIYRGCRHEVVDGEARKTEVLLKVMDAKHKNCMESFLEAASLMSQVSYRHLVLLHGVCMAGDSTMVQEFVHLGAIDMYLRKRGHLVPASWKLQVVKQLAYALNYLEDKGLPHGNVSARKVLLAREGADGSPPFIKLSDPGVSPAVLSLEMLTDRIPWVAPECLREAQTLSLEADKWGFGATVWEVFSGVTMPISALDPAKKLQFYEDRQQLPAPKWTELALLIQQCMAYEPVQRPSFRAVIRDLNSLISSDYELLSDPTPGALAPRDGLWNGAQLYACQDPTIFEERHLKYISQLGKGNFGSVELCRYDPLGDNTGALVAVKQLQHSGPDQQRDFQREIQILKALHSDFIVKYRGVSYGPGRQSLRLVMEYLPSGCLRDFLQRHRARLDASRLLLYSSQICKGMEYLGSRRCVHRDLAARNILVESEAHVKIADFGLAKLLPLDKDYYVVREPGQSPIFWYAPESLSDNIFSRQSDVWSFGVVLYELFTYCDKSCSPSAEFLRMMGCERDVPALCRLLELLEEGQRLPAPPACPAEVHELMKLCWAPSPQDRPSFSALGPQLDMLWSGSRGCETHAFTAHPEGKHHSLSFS
Would you mind telling me the reported pIC50 of each entry?
Note on pIC50: it is the negative log10 of concentration, concentration in mol/L.

Recombinant purified human JAK3 (Homo sapiens) pIC50 of N#C/C(=C\C1CC1)C(=O)N1CCC[C@@H](Nc2nc(Nc3cnn(C4CC4)c3)nc3[nH]nc(Cl)c23)C1 is 8.06

Recombinant purified human JAK3 (Homo sapiens) pIC50 of C=CC(=O)N1CCC[C@@H](Nc2nc(Nc3cccnc3)nc3[nH]cc(Cl)c23)C1 is 8.59

Recombinant purified human JAK3 (Homo sapiens) pIC50 of C=CC(=O)N1CC[C@@H](C)[C@@H](Nc2nc(Nc3cnn(CC)c3)nc3[nH]nc(Cl)c23)C1 is 8.35

Recombinant purified human JAK3 (Homo sapiens) pIC50 of C=CC(=O)N1CC[C@@H](F)[C@@H](Nc2nc(Nc3cnn(CC)c3)nc3[nH]ncc23)C1 is 8.22

Recombinant purified human JAK3 (Homo sapiens) pIC50 of CCn1cc(Nc2nc(N[C@@H]3CCCN(C(=O)/C(C#N)=C/C4CC4)C3)c3cc[nH]c3n2)cn1 is 9.05

Recombinant purified human JAK3 (Homo sapiens) pIC50 of CCn1cc(Nc2nc(S[C@@H]3CCCN(C(=O)/C(C#N)=C/C(C)C)C3)c3c(Cl)c[nH]c3n2)cn1 is 8.82

Recombinant purified human JAK3 (Homo sapiens) pIC50 of C=CC(=O)N1CCC[C@@H](Nc2nc(Nc3cnn(C)c3)nc3[nH]nc(Cl)c23)C1 is 9.15

Recombinant purified human JAK3 (Homo sapiens) pIC50 of C=CC(=O)N1CCC[C@@H](Nc2nc(Nc3cnn(CC)c3)nc3[nH]cc(F)c23)C1 is 9.52

Recombinant purified human JAK3 (Homo sapiens) pIC50 of CC#CC(=O)N1CCC[C@@H](Nc2nc(Nc3cnn(CC(F)F)c3)nc3[nH]ccc23)C1 is 7.95

Recombinant purified human JAK3 (Homo sapiens) pIC50 of C=CC(=O)N1CCC[C@@H](Nc2nc(Nc3ccc(N(C)C)cc3)nc3[nH]ccc23)C1 is 8.41

Recombinant purified human JAK3 (Homo sapiens) pIC50 of C=CC(=O)N1CCC[C@@H](Nc2nc(Nc3cnoc3)nc3[nH]ncc23)C1 is 8.13

Recombinant purified human JAK3 (Homo sapiens) pIC50 of CCn1cc(Nc2nc(N[C@@H]3CCCN(C(=O)/C(C#N)=C/C(C)C)C3)c3cc[nH]c3n2)cn1 is 9.05

Recombinant purified human JAK3 (Homo sapiens) pIC50 of C=CC(=O)N1CCC[C@@H](Nc2nc(Nc3cnn(CCN(CC)CC)c3)nc3[nH]ncc23)C1 is 8.77

###

target: Recombinant purified human BTK (Homo sapiens, UniProt Q06187); assay: BTK kinase inhibitory activity, ADP-Glo kinase assay (Promega V9071); conditions: ATP 10 uM, 8 ng BTK per reaction, 1 hour 30 °C, chemiluminescence
Sequence (Q06187 whole entry): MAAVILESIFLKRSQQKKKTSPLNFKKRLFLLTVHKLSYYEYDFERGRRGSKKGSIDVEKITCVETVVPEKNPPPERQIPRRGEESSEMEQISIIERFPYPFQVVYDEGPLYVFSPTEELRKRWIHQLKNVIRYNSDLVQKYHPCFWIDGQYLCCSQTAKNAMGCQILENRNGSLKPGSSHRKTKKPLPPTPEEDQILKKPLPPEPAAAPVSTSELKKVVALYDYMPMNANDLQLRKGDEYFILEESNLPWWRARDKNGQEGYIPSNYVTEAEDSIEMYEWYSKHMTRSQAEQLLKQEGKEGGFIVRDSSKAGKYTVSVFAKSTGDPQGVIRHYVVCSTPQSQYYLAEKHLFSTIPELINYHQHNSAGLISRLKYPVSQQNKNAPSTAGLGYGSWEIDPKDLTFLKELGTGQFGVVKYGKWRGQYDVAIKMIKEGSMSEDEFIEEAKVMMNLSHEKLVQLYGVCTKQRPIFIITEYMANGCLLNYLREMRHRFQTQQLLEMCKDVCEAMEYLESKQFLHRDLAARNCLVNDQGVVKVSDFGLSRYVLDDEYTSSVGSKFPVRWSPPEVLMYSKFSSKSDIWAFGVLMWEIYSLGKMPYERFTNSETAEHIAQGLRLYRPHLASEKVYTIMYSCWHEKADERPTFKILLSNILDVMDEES
outcome.measure: pIC50
Note on pIC50: it is the negative log10 of concentration, concentration in mol/L.

Entry under test: C=CC(=O)N1CCC[C@@H](Nc2nc(Nc3ccc(C(=O)N4CCOCC4)cc3)nc3[nH]cc(Cl)c23)C1 . Its pIC50 was 7.92

Entry under test: C=CC(=O)N1CCC[C@@H](Sc2nc(Nc3cnoc3)nc3[nH]nc(Cl)c23)C1 . Its pIC50 was 7.60

Entry under test: C=CC(=O)N1CCC[C@@H](Nc2nc(Nc3ccc(N4CCN(C)CC4)cc3)nc3[nH]ccc23)C1 . Its pIC50 was 7.97

Entry under test: C=CC(=O)N1CCC[C@@H](Nc2nc(Nc3cnn(C4CC4)c3)nc3[nH]nc(SC)c23)C1 . Its pIC50 was 8.64
